The reader will find reported Emax values listed item by item below.
# Experimental target: Glucocorticoid Receptor (Homo sapiens)
# Construct: These cells express large amount of the GR and are very responsive to GC treatment; endogenous in cells; host or cells: A549 cells transiently transfected with the MMTV-LUC reporter
# Experiment: Trans-Activation Modulation of Glucocorticoid Receptor (GRAMMER), MMTV-LUC reporter gene in A549 cells
# Type: cell-based
# Measurement context: A549, A549 cells; Emax relative to 300 nM dexamethasone; Table 1; read-out: Transactivation A549 Cells GRAMMER Emax
Measure name: Emax (%)

- CC(C)CN(C)C(=O)[C@H]1CCC2=Cc3c(cnn3-c3ccc(F)cc3)C[C@@]21C [Compound 54]: 3.1
- C[C@]12Cc3cnn(-c4ccc(F)cc4)c3C=C1CC[C@@H]2C(=O)N1CCCC1CCc1ccccc1 (stereo partly shown) [Compound 19]: 4
- CCCN(CC)C(=O)[C@H]1CCC2=Cc3c(cnn3-c3ccc(F)cc3)C[C@@]21C [Compound 4]: 19.2
- CN(CC(O)C(F)(F)F)C(=O)[C@H]1CCC2=Cc3c(cnn3-c3ccc(F)cc3)C[C@@]21C (stereo partly shown) [Compound 70]: 62.5
- CCCN(CC(O)C(F)(F)F)C(=O)[C@H]1CCC2=Cc3c(cnn3-c3ccccc3)C[C@@]21C (stereo partly shown) [Compound 78]: 65
- C[C@]12Cc3cnn(-c4ccc(F)cc4)c3C=C1CC[C@@H]2C(=O)N(Cc1ccccc1F)CC(O)C(F)(F)F (stereo partly shown) [Compound 59]: 75.2
- Cc1ccc(CN(CCO)C(=O)[C@H]2CCC3=Cc4c(cnn4-c4ccc(F)cc4)C[C@@]32C)cc1F [Compound 27]: 10.2

----------
The reader will find reported GITAR Greater than by GRAMMER % SEP values listed item by item below.
# Experimental target: human GR (Homo sapiens, UniProt P04150)
# Construct: U937 cells contain an endogenous glucocorticoid receptor (GR); endogenous in cells; host or cells: U937 cells stably transfected with the TNF-alpha promoter/beta-lactamase reporter
# Sequence (P04150 1-777): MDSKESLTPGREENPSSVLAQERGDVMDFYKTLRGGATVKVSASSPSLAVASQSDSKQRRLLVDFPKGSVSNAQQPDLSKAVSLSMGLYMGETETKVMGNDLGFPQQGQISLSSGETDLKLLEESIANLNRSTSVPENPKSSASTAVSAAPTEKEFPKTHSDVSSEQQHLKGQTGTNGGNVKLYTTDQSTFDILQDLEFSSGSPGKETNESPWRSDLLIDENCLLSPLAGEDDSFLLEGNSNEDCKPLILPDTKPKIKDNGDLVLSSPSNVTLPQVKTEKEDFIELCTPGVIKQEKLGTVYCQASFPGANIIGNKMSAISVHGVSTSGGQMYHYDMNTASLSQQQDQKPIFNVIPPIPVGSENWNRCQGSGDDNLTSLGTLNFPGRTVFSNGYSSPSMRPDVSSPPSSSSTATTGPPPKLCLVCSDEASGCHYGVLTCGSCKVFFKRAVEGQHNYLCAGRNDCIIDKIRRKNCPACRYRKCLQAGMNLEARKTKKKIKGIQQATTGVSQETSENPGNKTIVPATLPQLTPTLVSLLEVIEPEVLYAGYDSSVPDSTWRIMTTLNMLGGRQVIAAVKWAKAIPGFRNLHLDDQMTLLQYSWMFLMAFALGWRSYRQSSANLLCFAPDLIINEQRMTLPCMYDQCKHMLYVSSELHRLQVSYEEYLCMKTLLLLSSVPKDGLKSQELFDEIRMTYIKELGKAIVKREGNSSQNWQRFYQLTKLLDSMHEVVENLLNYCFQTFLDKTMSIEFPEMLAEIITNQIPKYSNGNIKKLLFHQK
# Experiment: Transrepression Assay (GITAR), TNFα-β-lactamase reporter gene in U937 cells
# Format: cell-based
# Measurement context: GITAR Emax minus GRAMMER Emax; Table 1
Measure name: GITAR Greater than by GRAMMER % SEP (%)

- C[C@]12Cc3cnn(-c4ccc(F)cc4)c3C=C1CC[C@@H]2C(=O)N(CCO)CC(=O)c1coc2ccccc12 [Compound 29]: 29.8
- C[C@]12Cc3cnn(-c4ccc(F)cc4)c3C=C1CC[C@@H]2C(=O)N(CCO)CC(O)C(F)(F)F (stereo partly shown) [Compound 60]: 29.8
- CCN(CC(O)C(F)(F)F)C(=O)[C@H]1CCC2=Cc3c(cnn3-c3ccc(F)cc3)C[C@@]21C (stereo partly shown) [Compound 72]: 19.6
- C[C@]12Cc3cnn(-c4ccc(F)cc4)c3C=C1CC[C@@H]2C(=O)N1CCCC(CCc2ccccc2)C1 (stereo partly shown) [Compound 20]: 7.4

// provenance: patent US8338472B2
